experiment: Total body clearance in rat following administration of 10 mg/kg, p.o. and 10 mg/kg, i.v.; format: ADME, organism-based; details: in vivo, iv
ASSAY_ENDPOINT: clearance (mL/min/kg)

Q: Recorded clearance of CCCC(CCC)N1CCc2cn(-c3ccc(OC)cc3C)c3nc(C)cc1c23 , please.
A: 107

I: CCCC(CCC)N1CCc2cn(-c3ccc(S(C)(=O)=O)cc3Cl)c3nc(C)cc1c23
II: CCCC(CCC)N1CCc2cn(-c3ccc(OC)nc3OC)c3nc(C)cc1c23
Q: Kindly identify which of I and II has the larger recorded clearance value. // caller expects the label of the chosen entry
A: I

* * *

assay: Half life in rat following administration of 10 mg/kg, p.o. and 5 mg/kg, i.v.; assay type: ADME, organism-based; conditions: in vivo
ASSAY_ENDPOINT: half-life (h)
// units = h; emit number, no label

Q: Which half-life value belongs to CCCC(CCC)N1CCc2nn(-c3ccc(Cl)cc3Cl)c3nc(C)cc1c23 ?
A: 12

* * *

molecular target: Corticotropin releasing factor receptor (Rattus norvegicus, UniProt P47866+P35353); assay: Inhibition of corticotropin releasing factor stimulated adrenocorticotropic hormone release from rat pituitary cells; type: functional, cell-based; conditions: pituitary gland cell
ASSAY_ENDPOINT: IC50 (nM)

Q: Item CCCC(CCC)N1CCc2cn(-c3ccc(OC)nc3OC)c3nc(C)cc1c23 has what recorded IC50?
A: 29

Q: Next up: CCCC(CCC)N1CCc2cn(-c3ccc(OC)cc3C)c3nc(C)cc1c23
A: 39

Q: How about this compound: CCC(COC)N1CCc2cn(-c3c(C)cc(Cl)cc3C)c3nc(C)cc1c23 (configuration not stated)
A: 27

Q: Then CCCC(CCC)N1CCc2cn(-c3ccc(S(C)(=O)=O)cc3Cl)c3nc(C)cc1c23 ?
A: 250

A: CCC(CC)N1CCc2cn(-c3ccc(OC(F)(F)F)cc3C)c3nc(C)cc1c23
B: CCCC(CCC)N1CCc2cn(-c3ccc(C)cc3Cl)c3nc(C)cc1c23
C: CCCC(CCC)N1CCc2nn(-c3ccc(Cl)cc3Cl)c3nc(C)cc1c23
Q: Kindly order the items shown according to IC50, from the highest value down. Provide your answer as the labels ordered per the instruction.
A: A, B, C
(A: 48 nM, B: 14 nM, C: 6.8 nM)

* * *

test: Bioavailability in rat (dose 10 mg/kg p.o. and 10 mg/kg, i.v.); format: ADME, organism-based; details: in vivo, po
ASSAY_ENDPOINT: bioavailability (%)

A: CCCC(CCC)N1CCc2cn(-c3ccc(OC)nc3OC)c3nc(C)cc1c23
B: CCCC(CCC)N1CCc2cn(-c3ccc(S(C)(=O)=O)cc3Cl)c3nc(C)cc1c23
C: CCCC(CCC)N1CCc2cn(-c3ccc(OC)cc3C)c3nc(C)cc1c23
Q: Please put the entries in order of rising bioavailability. Form field (ranking): labels in requested order.
A: C, A, B
(C: 18%, A: 50%, B: 74%)

* * *

test: Total body clearance in rat following administration of 2 mg/kg, p.o. and 1 mg/kg, i.v.; type: ADME, organism-based; conditions: in vivo, iv
ASSAY_ENDPOINT: clearance (mL/min/kg)

P: CCC(CC)N1CCc2cn(-c3ccc(OC(F)(F)F)cc3C)c3nc(C)cc1c23
Q: CCC(COC)N1CCc2cn(-c3c(C)cc(Cl)cc3C)c3nc(C)cc1c23 (configuration not stated)
Q: In terms of reported clearance, does P or Q have the smaller number? Selection: enter the item's label.
A: P
(P: 28 mL/min/kg, Q: 87 mL/min/kg)
